Recorded values, source patent US20260174777A1.

experiment summary: clinical
conditions used: human, plasma, oral, 12 mg TID
assay readout: Cmax (ng/mL)
Numbers only, in ng/mL.

Ask: For the compound shown here, C[C@H]1CN2CCNCc3ccc(C(=O)NCC(F)F)c1c32 [Compound 1] , give the reported Cmax.
Reply: 44.9

====

experiment summary: clinical
conditions used: human, plasma, oral, 18 mg TID
assay readout: Tmax (h)
Answers are plain numbers, in h.

Ask: Look up Tmax: C[C@H]1CN2CCNCc3ccc(C(=O)NCC(F)F)c1c32
Reply: 2

====

experiment summary: clinical
conditions used: human, plasma and urine, oral, 24 mg
assay readout: CL renal (mL/min)
One number for each entry, in mL/min.

Ask: Any idea what CL renal was measured for C[C@H]1CN2CCNCc3ccc(C(=O)NCC(F)F)c1c32 ?
Reply: 62.5

====

experiment summary: clinical
conditions used: human, plasma, oral, 12 mg TID
assay readout: AUC(0-t) (ng·h/mL)
One number for each entry, in ng·h/mL.

Ask: Quick check: AUC(0-t) of C[C@H]1CN2CCNCc3ccc(C(=O)NCC(F)F)c1c32 ?
Reply: 327

====

experiment summary: clinical
conditions used: human, plasma, oral, 24 mg
assay readout: Tmax (h)
Give bare numbers, in h.

Ask: What value of Tmax has been recorded for this entry: C[C@H]1CN2CCNCc3ccc(C(=O)NCC(F)F)c1c32
Reply: 1.07

====

experiment summary: clinical
conditions used: human, plasma, oral, 24 mg TID
assay readout: half-life (h)
Give bare numbers, in h.

Ask: Bench note: what half-life did C[C@H]1CN2CCNCc3ccc(C(=O)NCC(F)F)c1c32 show?
Reply: 6.5

====

experiment summary: clinical
conditions used: human, plasma, oral, 3 mg
assay readout: Tmax (h)
Answers are plain numbers, in h.

Ask: Reported Tmax, compound C[C@H]1CN2CCNCc3ccc(C(=O)NCC(F)F)c1c32 : ____
Reply: 1.02

====

experiment summary: clinical
conditions used: human, plasma, oral, 18 mg TID
assay readout: AUC(0-t)

Ask: Item C[C@H]1CN2CCNCc3ccc(C(=O)NCC(F)F)c1c32 has what recorded AUC(0-t)?
Reply: 773 ng·h/mL

====

experiment summary: clinical
conditions used: human, plasma, oral, 18 mg TID
assay readout: AUC (ng·h/mL)
Give bare numbers, in ng·h/mL.

Ask: Recorded AUC for C[C@H]1CN2CCNCc3ccc(C(=O)NCC(F)F)c1c32 , please?
Reply: 480

====

experiment summary: clinical
conditions used: human, plasma, oral, 6 mg TID
assay readout: half-life (h)
One number for each entry, in h.

Ask: Reported half-life for C[C@H]1CN2CCNCc3ccc(C(=O)NCC(F)F)c1c32 : what is it?
Reply: 4.81

====

experiment summary: clinical
conditions used: human, plasma, oral, 3 mg TID
assay readout: Cmax (ng/mL)
Numbers only, in ng/mL.

Ask: Reported Cmax for C[C@H]1CN2CCNCc3ccc(C(=O)NCC(F)F)c1c32 : what is it?
Reply: 6.61

====

experiment summary: clinical
conditions used: human, plasma and urine, oral, 6 mg
assay readout: CL renal (mL/min)
Answers are plain numbers, in mL/min.

Ask: Could you share which CL renal value was measured for C[C@H]1CN2CCNCc3ccc(C(=O)NCC(F)F)c1c32 ?
Reply: 57

====

experiment summary: clinical
conditions used: human, plasma, oral, 6 mg
assay readout: Cmax
I'd appreciate it if you included the unit after the number.

Ask: Give its Cmax value. Item: C[C@H]1CN2CCNCc3ccc(C(=O)NCC(F)F)c1c32
Reply: 9.52 ng/mL

====

experiment summary: clinical
conditions used: human, plasma, oral, 24 mg TID
assay readout: AUC(0-inf) (ng·h/mL)
Numbers only, in ng·h/mL.

Ask: Fill blank: measured AUC(0-inf) of the molecule C[C@H]1CN2CCNCc3ccc(C(=O)NCC(F)F)c1c32 is ____.
Reply: 741

====

experiment summary: clinical
conditions used: human, plasma, oral, 6 mg TID
assay readout: AUC(0-t) (ng·h/mL)
Give bare numbers, in ng·h/mL.

Ask: Record request: AUC(0-t) value, item C[C@H]1CN2CCNCc3ccc(C(=O)NCC(F)F)c1c32 [Compound 1]
Reply: 150

====

experiment summary: clinical
conditions used: human, plasma, oral, 24 mg TID
assay readout: AUC(0-t) (ng·h/mL)
Give bare numbers, in ng·h/mL.

Ask: // AUC(0-t) lookup, key: C[C@H]1CN2CCNCc3ccc(C(=O)NCC(F)F)c1c32
Reply: 737

====

experiment summary: clinical
conditions used: human, plasma, oral, 6 mg TID
assay readout: Cmax

Ask: Consider the molecule shown here: C[C@H]1CN2CCNCc3ccc(C(=O)NCC(F)F)c1c32 [Compound 1] What is its recorded Cmax?
Reply: 0.0207 µg/mL

====

experiment summary: clinical
conditions used: human, plasma, oral, 12 mg TID
assay readout: AUC (ng·h/mL)
Answers are plain numbers, in ng·h/mL.

Ask: Form field: reported AUC of C[C@H]1CN2CCNCc3ccc(C(=O)NCC(F)F)c1c32
Reply: 213

====

experiment summary: clinical
conditions used: human, plasma, oral, 24 mg
assay readout: Cmax (ng/mL)
Numbers only, in ng/mL.

Ask: If you can, please state the reported Cmax value of C[C@H]1CN2CCNCc3ccc(C(=O)NCC(F)F)c1c32 .
Reply: 59.3

====

experiment summary: clinical
conditions used: human, plasma, oral, 1 mg
assay readout: Tmax (h)
One number for each entry, in h.

Ask: # query: Tmax of entry C[C@H]1CN2CCNCc3ccc(C(=O)NCC(F)F)c1c32
Reply: 1.54

====

experiment summary: clinical
conditions used: human, plasma, oral, 18 mg TID
assay readout: AUC(0-inf) (ng·h/mL)
Numbers only, in ng·h/mL.

Ask: Item under review: C[C@H]1CN2CCNCc3ccc(C(=O)NCC(F)F)c1c32 . Reported AUC(0-inf)?
Reply: 775

====

experiment summary: clinical
conditions used: human, plasma, oral, 24 mg TID
assay readout: Tmax (h)
Answers are plain numbers, in h.

Ask: Returns the measured Tmax for the input compound. Input: C[C@H]1CN2CCNCc3ccc(C(=O)NCC(F)F)c1c32
Reply: 1.04

====

experiment summary: clinical
conditions used: human, plasma, oral, 6 mg TID
assay readout: Tmax (h)
Answers are plain numbers, in h.

Ask: Tmax lookup needed for C[C@H]1CN2CCNCc3ccc(C(=O)NCC(F)F)c1c32 [Compound 1] , thanks.
Reply: 1.78

====

experiment summary: clinical
conditions used: human, plasma, oral, 24 mg
assay readout: half-life (h)
Give bare numbers, in h.

Ask: Please report the recorded half-life for C[C@H]1CN2CCNCc3ccc(C(=O)NCC(F)F)c1c32 .
Reply: 5.09

====

experiment summary: clinical
conditions used: human, plasma, oral, 3 mg
assay readout: AUC(0-inf) (ng·h/mL)
Give bare numbers, in ng·h/mL.

Ask: Data request, read-out AUC(0-inf), for C[C@H]1CN2CCNCc3ccc(C(=O)NCC(F)F)c1c32
Reply: 40.9

====

experiment summary: clinical
conditions used: human, plasma, oral, 24 mg TID
assay readout: Cmax (ng/mL)
Numbers only, in ng/mL.

Ask: Query: Cmax; subject: C[C@H]1CN2CCNCc3ccc(C(=O)NCC(F)F)c1c32
Reply: 107

====

experiment summary: clinical
conditions used: human, plasma, oral
assay readout: Tmax

Ask: Fill in: Tmax of C[C@H]1CN2CCNCc3ccc(C(=O)NCC(F)F)c1c32 [Compound 1] is ___
Reply: 1 to 2 h

====

experiment summary: clinical
conditions used: human, plasma, oral, 12 mg
assay readout: Tmax (h)
One number for each entry, in h.

Ask: Give the measured Tmax of C[C@H]1CN2CCNCc3ccc(C(=O)NCC(F)F)c1c32 .
Reply: 1.25

====

experiment summary: clinical
conditions used: human, plasma, oral, 3 mg
assay readout: half-life (h)
Answers are plain numbers, in h.

Ask: Quick one: half-life of C[C@H]1CN2CCNCc3ccc(C(=O)NCC(F)F)c1c32 [Compound 1] ?
Reply: 4.94

====

experiment summary: clinical
conditions used: human, plasma and urine, oral, 1 mg
assay readout: CL renal
Form field: result (number plus unit)

Ask: I have this molecule here, C[C@H]1CN2CCNCc3ccc(C(=O)NCC(F)F)c1c32 , and I need its recorded CL renal.
Reply: 50 mL/min

====

experiment summary: clinical
conditions used: human, plasma, oral, 3 mg
assay readout: Cmax (ng/mL)
Answers are plain numbers, in ng/mL.

Ask: Can you look up the measured Cmax of C[C@H]1CN2CCNCc3ccc(C(=O)NCC(F)F)c1c32 for me?
Reply: 6.36

====

experiment summary: clinical
conditions used: human, plasma, oral, 12 mg TID
assay readout: AUC(0-inf) (ng·h/mL)
Answers are plain numbers, in ng·h/mL.

Ask: Sample C[C@H]1CN2CCNCc3ccc(C(=O)NCC(F)F)c1c32 — what was its AUC(0-inf)?
Reply: 330

====

experiment summary: clinical
conditions used: human, plasma, oral, 6 mg
assay readout: AUC(0-inf)
Could you give the number and then its unit, please?

Ask: Request the reported AUC(0-inf) associated with C[C@H]1CN2CCNCc3ccc(C(=O)NCC(F)F)c1c32
Reply: 58.7 ng·h/mL
